Target: T1, extracellular domain (ECD) of Her2 (ErbB2) (human, UniProt P04626 23-652)
T1 construct: Target as named in the sentence on the thirty-one scFvs; also called ECD region of Her2
Assay: three rounds of selection and screening ELISA, soluble periplasmic scFv
metric: binding result

S1R3B1_BMV_1A1 (scFv, V domains shown, scFv (one chain), soluble from the bacterial periplasm in the screening; also called Her2_S1R3B1_BMV_1A1) VH: EVQLVQSGAEVKEPGASVKVSCKASGYDFSNYGFSWVRQAPGQGLEWMGWISSYNGYTNYAQRLQGRVTMTTDTSTSTAYMELRSLRSDDTAVYYCARDRGLGNWYFDLWGQGTLVTVSS VL: QSVLTQPASVSGSPGQSITISCTGTSSDVGGYNYVSWYQQHPGKAPKLMIYEGSKRPSGVSNRFSGSKSGNTASLTISGLQAEDEADYYCSSYTTRSTRVFGGGTKLTVLG :: binds
S1R3B1_BMV_1H11 (scFv, V domains shown, scFv (one chain), soluble from the bacterial periplasm in the screening; also called Her2_S1R3B1_BMV_1H11) VH: EVQLVQSGGGLVKPGGSLRLSCAASGFTFSSYGMHWVRQAPGKGLEWVAGIFYDGGNKYYADSVKGRFTISRDNSKNTLYLQMNSLRAEDTAVYYCARDRGYYYMDVWGKGTTVTVSS VL: QSVLTQPPSVSGAPGQRVTISCTGRSSNIGAGHDVHWYQQLPGTAPKLLIYGDSNRPSGVPDRFSGSRSGTSASLAITGLQAEDEADYYCQSYDSSLRGSVFGGGTKVTVLG :: binds
S1R3C1_BMV_1H11 (scFv, V domains shown, scFv (one chain), soluble from the bacterial periplasm in the screening; also called Her2_S1R3C1_BMV_1H11) VH: GVQLVESGGGLVKPGGSLRLSCAASGFTFSSYNMNWVRQAPGKGLEWVSAISGSGGSTYYADSVTGRFTISRDNSKNTLYLQMNSLRAEDTAVYYCAKDTSGWYGDGMDVWGRGTLVTVSS VL: DIQMTQSPSTLSASIGDRVTITCRASEGIYHWLAWYQQKPGKAPKLLIYKASSLASGAPSRFSGSGSGTDFTLTISSLQPDDFATYYCQQYSNYPLTFGGGTKLEIKR :: binds
S1R3B1_BMV_1G11 (scFv, V domains shown, scFv (one chain), soluble from the bacterial periplasm in the screening; also called Her2_S1R3B1_BMV_1G11) VH: QVQLVQSGGGLVQPGGSLRLSCAASGFTFSTYAMSWARQAPGKGLEWVSSISGDGGRILDADSAKGRFTISRDNSKNTLYLQMNGLRVEDTALYYCARADGNYWGRGTMVTVSS VL: QSVLTQPASVSGSPGQSITISCTGTSSDVGGYNYVSWYQQHPGKAPKLMIYEGSKRPSGVSNRFSGSKSGNTASLTISGLQAEDEADYYCSSYTTRSTRVFGGGTKLTVLG :: binds
S1R3A1_CS_1B12 (scFv, V domains shown, scFv (one chain), soluble from the bacterial periplasm in the screening; also called Her2_S1R3A1_CS_1B12) VH: QVQLVQSGAEVKKPGASVKVSCQASGYTFSGHYMHLVRQAPGQGLEWMGWIHPTSGGTTYAQKFQGRVVMTRDTSISTAYMELSRLTSDDTAVYYCARMSQNYDAFDIWGQGTMVTVSS VL: QAVLTQPSSVSGAPGQRVTISCTGSSSNIGAGYDVNWYQQFPGTAPKIIVYGDRPSGAPDRFSGSKSGTSASLAITGLRAEDEADYYCQSWDSRLSSYVFGTGTKVTVLG :: binds
S1R3B1_BMV_1A10 (scFv, V domains shown, scFv (one chain), soluble from the bacterial periplasm in the screening; also called Her2_S1R3B1_BMV_1A10) VH: QMQLVQSGGGVVQPGRSLRLSCAASGFTFSSYGMHWVRQAPGKGLEWVAVISYDGSIKYYADSVKGRFTISRDNSKNTLYLQMNSLRAEDTGVYYCSKDRYSSGWYSSDAFDIWGRGTMVTVSS VL: SSELTQDPAVSVALGQTVRITCQGDSLRSYYASWYQQKPGQAPVLVIYGKNNRPSGIPDRFSGSSSGNTASLTITGAQAEDEADYYCHSRDSSGNHVLFGGGTKLTVLG :: binds

Dear colleague, please send me the reported binding result for S1R3A1_BMV_1G4 (scFv, V domains shown, scFv (one chain), soluble from the bacterial periplasm in the screening; also called Her2_S1R3A1_BMV_1G4) VH: QVQLVESGAEVKKPGASVKVSCKASGYTFTSYDINWVRQAPGQRLEWMGWINAGNGNTKYSQKFQGRVTITRDTSASTAYMELRSLRSDDTAVYYCARGRSYGHPYYFDYWGQGTLVTVSS VL: QSVLTQPASVSGSPGQSITISCTGTSSDVGGYNYVSWYQQHPGKAPKLMIYEGSKRPSGVSNRFSGSKSGNTASLTISGLQAEDEADYYCSSYTTRSTRVFGGGTKLTVLG when you can.
binds
